Biological target: PDE10 (UniProt Q8CA95)
Experiment: PDE10 enzyme inhibition, IMAP TR-FRET assay (Example A: MPDE10A7 Enzyme Activity and Inhibition)
Format: biochemical
Conditions: Table 1A, Examples 11-56; read-out: PDE10 IC50
Description: MPDE10A7 Enzyme Activity and Inhibition Enzyme Activity. An IMAP TR-FRET assay was used to analyze the enzyme activity (Molecular Devices Corp., Sunnyvale Calif.). […] The plates were read on an Envision (Perkin Elmer, Waltham, Mass.) for time resolved fluorescence resonance energy transfer. The data were analyzed with GraphPad Prism (La Jolla, Calif.). […] The data were analyzed with GraphPad Prism (La Jolla, Calif.).
quantityKind: IC50 (nM)

INSERT INTO assay_data (compound, targetorsystem, value) VALUES
  ('O=C(NC1CCOCC1)c1nccnc1N1CC(c2nc3cc(Cl)ccc3[nH]2)C1 [Example 36]', 'PDE10 (UniProt Q8CA95)', 3280),
  ('O=C(NC[C@H]1CCCO1)c1nccnc1N1CC(c2nc3cc(Cl)ccc3[nH]2)C1 [Example 37]', 'PDE10 (UniProt Q8CA95)', 2530),
  ('Cc1ccc2[nH]c(C3CN(c4nccnc4-c4ccccc4)C3)nc2c1 [Example 39]', 'PDE10 (UniProt Q8CA95)', 39.8);

a = CN(C)C(=O)c1nccnc1N1CC(c2nc3cc(Cl)ccc3[nH]2)C1 [Example 35]
b = O=C(NCC1CCOCC1)c1cccnc1N1CC(c2nc3cc(Cl)ccc3[nH]2)C1 [Example 23]
## Input Among a and b , which shows a numerically higher IC50 result? Pick one and reply with its label.
## Output b
(b: 37600 nM, a: 10000 nM)

---

Molecular target: UniProt Q8CA95
Test: PDE10 enzyme inhibition, IMAP TR-FRET assay (Example A: MPDE10A7 Enzyme Activity and Inhibition)
Format: biochemical
Settings: Table 1A, Examples 11-56; read-out: PDE10 IC50
quantityKind: IC50 (nM)

# example entries with known answers
INSERT INTO assay_data (compound, targetorsystem, uom, value) VALUES
  ('O=C(Nc1ccccc1)c1cccnc1N1CC(c2nc3cc(Cl)ccc3[nH]2)C1', 'UniProt Q8CA95', 'nM', 2600),
  ('Clc1ccc2[nH]c(C3CN(c4nccnc4Nc4ccccc4)C3)nc2c1', 'UniProt Q8CA95', 'nM', 630),
  ('COc1ccc(-c2nccnc2N2CC(c3nc4cc(Cl)ccc4[nH]3)C2)cc1', 'UniProt Q8CA95', 'nM', 110),
  ('COc1ccccc1-c1nccnc1N1CC(c2nc3cc(Cl)ccc3[nH]2)C1', 'UniProt Q8CA95', 'nM', 4330),
  ('Cc1ccccc1-c1nccnc1N1CC(c2nc3cc(Cl)ccc3[nH]2)C1', 'UniProt Q8CA95', 'nM', 80.6);

a = N#Cc1ccc2[nH]c(C3CCN(c4nccnc4N4CCOCC4)C3)nc2c1 (stereo not drawn)
b = CC(C)CNC(=O)c1cccnc1N1CC(c2nc3cc(Cl)ccc3[nH]2)C1
c = Clc1ccc2[nH]c(C3CN(c4ncccc4Cl)C3)nc2c1
## Input Rank items: key IC50, increasing. Please express your ranking as an ordered list of the labels.
## Output c, a, b
(c: 7.81 nM, a: 535 nM, b: 2230 nM)

---

Target: UniProtKB Q8CA95
Sequence (Q8CA95 1-790): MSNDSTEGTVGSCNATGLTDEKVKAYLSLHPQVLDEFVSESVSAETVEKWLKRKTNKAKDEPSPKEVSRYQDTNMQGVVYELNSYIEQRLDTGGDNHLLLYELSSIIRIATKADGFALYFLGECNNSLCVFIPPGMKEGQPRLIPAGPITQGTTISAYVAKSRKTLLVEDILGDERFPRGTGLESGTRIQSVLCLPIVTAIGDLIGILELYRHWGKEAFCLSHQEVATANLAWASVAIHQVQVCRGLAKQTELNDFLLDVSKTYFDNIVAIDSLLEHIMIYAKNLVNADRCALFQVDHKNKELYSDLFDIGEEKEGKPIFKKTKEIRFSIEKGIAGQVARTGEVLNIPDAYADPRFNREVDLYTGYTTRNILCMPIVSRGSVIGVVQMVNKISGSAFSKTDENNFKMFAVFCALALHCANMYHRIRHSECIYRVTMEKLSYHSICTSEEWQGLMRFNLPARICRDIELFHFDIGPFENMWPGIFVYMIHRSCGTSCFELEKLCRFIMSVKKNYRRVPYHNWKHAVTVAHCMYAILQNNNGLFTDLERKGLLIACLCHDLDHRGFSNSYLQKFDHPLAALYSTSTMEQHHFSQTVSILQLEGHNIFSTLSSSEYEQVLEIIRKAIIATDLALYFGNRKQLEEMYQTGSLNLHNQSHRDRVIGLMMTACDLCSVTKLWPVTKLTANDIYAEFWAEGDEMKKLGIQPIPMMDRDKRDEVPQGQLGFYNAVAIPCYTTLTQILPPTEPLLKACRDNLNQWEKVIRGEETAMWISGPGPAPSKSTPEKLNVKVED
Test: PDE10 enzyme inhibition, IMAP TR-FRET assay (Example A: MPDE10A7 Enzyme Activity and Inhibition)
Assay type: biochemical
Settings: Table 1A, Examples 11-56; read-out: PDE10 IC50
quantityKind: IC50 (nM)

Example entries and their recorded answers appear below.
INSERT INTO measurements (samplesmiles, value) VALUES
  ('Cc1cccc(-c2nccnc2N2CC(c3nc4cc(Cl)ccc4[nH]3)C2)c1', 15),
  ('Clc1ccc2[nH]c(C3CN(c4nccnc4Oc4ccccc4)C3)nc2c1', 80.9),
  ('O=C(NCCc1ccccc1)c1cccnc1N1CC(c2nc3cc(Cl)ccc3[nH]2)C1', 1680);

A = Clc1ccc2[nH]c(C3CN(c4nccnc4N4CCCCC4)C3)nc2c1
B = CC(C)NC(=O)c1cccnc1N1CC(c2nc3cc(Cl)ccc3[nH]2)C1
## Input Response body: label of entry with the larger IC50; valid values A , B . Kindly state the label of the option you pick.
## Output B

A = Clc1cccc(-c2nccnc2N2CC(c3nc4cc(Cl)ccc4[nH]3)C2)c1
B = Clc1ccc2[nH]c(C3CN(c4nccnc4-c4ccccc4Cl)C3)nc2c1
## Input For the pair A and B , which member has the lower IC50 number? Answer by quoting the chosen item's label.
## Output B

I = Clc1ccc2[nH]c(C3CN(c4nccnc4-c4cccnc4)C3)nc2c1
II = CN1CCN(c2nccnc2N2CC(c3nc4cc(Cl)ccc4[nH]3)C2)CC1
## Input Hi team, can someone confirm which has the larger IC50: I or II ? Thanks. Mark your answer with the label of the selected entry.
## Output I

Cited source for all entries: patent US8946230B2
